Target: Cytochrome P450 2D6 (Homo sapiens) (UniProt P10635)
Sequence (P10635 whole entry, looked up): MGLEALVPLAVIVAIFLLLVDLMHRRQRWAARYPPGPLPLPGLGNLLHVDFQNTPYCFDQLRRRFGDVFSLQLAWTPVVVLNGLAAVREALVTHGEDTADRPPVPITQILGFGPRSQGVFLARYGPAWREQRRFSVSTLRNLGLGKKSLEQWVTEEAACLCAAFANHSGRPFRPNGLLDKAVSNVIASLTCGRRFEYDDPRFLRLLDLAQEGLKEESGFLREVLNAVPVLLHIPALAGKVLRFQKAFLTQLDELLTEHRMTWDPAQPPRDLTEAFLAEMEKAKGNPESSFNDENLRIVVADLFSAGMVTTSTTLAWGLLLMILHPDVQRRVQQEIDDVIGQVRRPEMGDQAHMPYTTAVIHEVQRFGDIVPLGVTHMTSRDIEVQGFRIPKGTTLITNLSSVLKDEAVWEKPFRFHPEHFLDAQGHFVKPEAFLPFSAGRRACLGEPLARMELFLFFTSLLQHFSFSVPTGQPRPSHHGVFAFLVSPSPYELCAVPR
Assay: Cytochrome P450 family 2 subfamily D member 6 (CYP2D6) small molecule antagonists: luciferase biochemical (cell-free) qHTS assay (AID 1645840); further: nearly all actives have a fitted effect of over 55% in size
Conditions: P450-Glo CYP2D6 enzyme, luciferin luminescence, 1 h; series mostly up to 57.4 µM
Records with an inconclusive call do not appear. The source made the active and inactive calls. The call rests on the fitted dose curve; in most records, active means well fitted inhibition curve with a large enough effect in the repeat runs; inconclusive means weak or mixed curves; inactive means flat fitted curve, though single readings scatter.
Select the correct class. Options are label 1 (active), label 0 (inactive) and nothing else.

Some entries whose results are on file:
- compound: "CC(C)c1ccc(Nc2c(-c3ccccn3)nc3ccccn23)cc1"
  discrete_label: "label 1"
- compound: "CC(C)c1ccc(-n2ncc3c(=O)n(CC(=O)Nc4cc(F)ccc4Cl)cnc32)cc1"
  discrete_label: "label 0"
- compound: "COc1ccc(NC(=O)Cn2ccn(-c3ccc(C)c(C)c3)c(=O)c2=O)cc1Cl"
  discrete_label: "label 0"
- compound: "CCOc1ccc(NC(=O)Cn2cc(C(=O)c3cccs3)c3ccccc32)cc1"
  discrete_label: "label 0"
- compound: "CCC=CCC=CCC=CCCCCCCCC(=O)O"
  discrete_label: "label 0"
- compound: "COc1ccc(Cn2c(SCc3ccc(C(=O)NC4CCCC4)cc3)nc3ccncc32)cc1"
  discrete_label: "label 1"

Enquiry: Can you look up the reported call for CCCNC(=O)C1CCC(Cn2c(=O)c3sccc3n(CC(=O)NCc3ccccc3)c2=O)CC1 (stereo not given) for me?
Return: label 0

Enquiry: Can you look up the reported call for C=Cc1ccc(Cn2c(SCC(=O)N3CCN(c4ccc(F)cc4)CC3)nc3ccccc32)cc1 for me?
Return: label 0

Enquiry: Can you look up the reported call for O=c1cc2nc(-c3cccs3)nc(SCCOc3ccc(Cl)cc3)n2[nH]1 for me?
Return: label 0

Enquiry: Can you look up the reported call for Cc1cccc2nc(-c3ccccn3)c(Nc3ccc(F)cc3)n12 for me?
Return: label 1

* * *

Target: Cytochrome P450 3A4 (Homo sapiens)
Assay: qHTS Assay for Inhibitors and Substrates of Cytochrome P450 3A4 (AID 884); further: nearly all actives have a fitted effect of over 50% in size; further: potency means the concentration at half of the fitted maximal effect
Settings: recombinant CYP3A4, Luciferin-PPXE luminescence; series mostly up to 57.1 µM
Results filed as inconclusive are left out. The source made the active and inactive calls. Calls follow the shape of the dose curve; as a rule, active = well fitted inhibition curve with a large enough effect; inconclusive = small, poorly fitted or top-dose-only effect; inactive = no such curve, though single readings can be large or run the other way.
metric_name: Potency

Recorded results for 4 compounds are shown here.
- compound: "CC(C)CCCC(C)C1CCC2C3C(=O)C=C4CC(O)CC[C@@]4(C)C3CC[C@@]12C (some centres undefined)"
  Potency: "inactive"
- compound: "CC(=O)C1CCC2C3CC=C4CC(O)CC[C@@]4(C)C3CC[C@]12C (some centres undefined)"
  Potency: "inactive"
- compound: "CCCCCCCCCCCCCCC(C(=O)O)C(O)(CC(=O)OC)C(=O)O (centres undefined)"
  Potency: "inactive"
- compound: "CCOC(=O)c1c(C)cc(O)cc1O"
  Potency: "25.1 µM (active)"

In plain terms, CC1CC[C@@]2(OC1)OC1CC3C4CC[C@@H]5CC(O)CC[C@@]5(C)C4CC[C@]3(C)C1C2C (some centres undefined) has a documented Potency of inactive

In plain terms, Nc1ncnc2c1nc(Br)n2C1CC(O)C(CO)O1 (centres undefined) has a documented Potency of inactive

In plain terms, CC1=CC(=O)C2C(C)(C)CCC[C@@]2(C)[C@@]1(O)CCc1ccoc1 (some centres undefined) has a documented Potency of 15.8 µM (active)

In plain terms, NCCC(=O)N[C@H](Cc1cnc[nH]1)C(=O)O has a documented Potency of inactive

In plain terms, Cc1ccc2c(c1)CC[C@H]1CC(=O)CC[C@@]21C has a documented Potency of 15.8 µM (active)

In plain terms, C=C1C2CC[C@@]3(C)C(c4ccoc4)OC(=O)C[C@@]13OC1CC(=O)C(C)(C)C(C(O)C(=O)OC)[C@]12C (some centres undefined) has a documented Potency of 2.51 µM (active)

In plain terms, CCC(/C=C/C(C)C1CCC2C3CC=C4CC(O)CC[C@@]4(C)C3CC[C@@]12C)C(C)C (some centres undefined) has a documented Potency of inactive

In plain terms, CC(C)C1COc2cc3oc(=O)ccc3cc2O1 (centres undefined) has a documented Potency of inactive

In plain terms, Nc1nc2[nH]c(=O)c(=O)[nH]c2c(=O)[nH]1 has a documented Potency of inactive

In plain terms, CC(CCC(=O)O)C1CCC2C3CC[C@@H]4CCCC[C@@]4(C)C3CC[C@@]12C (some centres undefined) has a documented Potency of inactive

In plain terms, O=c1cc(-c2ccc(O)cc2)oc2ccc(O)cc12 has a documented Potency of 3.16 µM (active)
